These entries and their values trace back to ChEMBL document CHEMBL1156482.

System: Human immunodeficiency virus 1
Experiment: Antiviral activity against HIV1 NDK infected in U87.CD4 cells expressing human CXCR4 D171ND262N mutant
Assay type: functional, organism-based
Conditions: Human immunodeficiency virus 1, NDK
reportedMetric: IC50 (µM)
Answer format: numeric, µM implied, no suffix.

Inquiry: Hello, please tell me recorded IC50 for this one: `c1ccc(CNCc2ccc(CN3CCCNCCNCCCNCC3)cc2)nc1`
Reply text: 4.64

---

Molecular target: C-X-C chemokine receptor type 4 (Homo sapiens, UniProt P61073, Q200W)
Assay: Displacement of [125I]12G5 antibody from transmembrane domain 5 of human CXCR4 Q200W mutant expressed in COS7 cells
Assay type: cell-based, COS-7
reportedMetric: Ki (nM)
Report only the number, with the unit nM understood.

Inquiry: Give reported Ki value for `c1ccc(CNCc2ccc(CN3CCCNCCNCCCNCC3)cc2)nc1`
Reply text: 1200

---

Target: C-X-C chemokine receptor type 4 (Homo sapiens, UniProt P61073, G207W)
Sequence (P61073 whole entry G207W, the tested form may be a part): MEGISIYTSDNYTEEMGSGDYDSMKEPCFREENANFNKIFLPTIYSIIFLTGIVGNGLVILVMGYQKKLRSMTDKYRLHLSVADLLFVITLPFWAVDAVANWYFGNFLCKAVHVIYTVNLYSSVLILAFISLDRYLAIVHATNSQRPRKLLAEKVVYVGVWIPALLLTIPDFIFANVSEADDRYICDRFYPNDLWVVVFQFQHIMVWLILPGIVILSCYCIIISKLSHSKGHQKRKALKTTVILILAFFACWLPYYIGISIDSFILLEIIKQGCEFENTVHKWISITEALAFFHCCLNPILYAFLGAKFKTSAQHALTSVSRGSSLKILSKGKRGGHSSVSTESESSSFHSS
Assay: Displacement of [125I]12G5 antibody from transmembrane domain 5 of human CXCR4 G207W mutant expressed in COS7 cells
reportedMetric: Ki (nM)
Give the quantity in nM, number only.

Inquiry: Fill in Ki for record `c1ccc(CNCc2ccc(CN3CCCNCCNCCCNCC3)cc2)nc1`
Reply text: 130

---

Molecular target: C-X-C chemokine receptor type 4 (Homo sapiens, UniProt P61073, F172A)
Sequence (P61073 whole entry F172A): as the sequence (P61073 whole entry G207W, the tested form may be a part) above, with F172A, W207G counted along it
Test: Antagonist activity at human CXCR4 F172A mutant expressed in COS7 cells coexpressing G protein Gqi4myr assessed as inhibition of CXCL12-induced phosphatidylinositol turnover
Assay type: functional, cell-based, COS-7
I'd appreciate it if you could supply pKi values for the items below.
pKi field: float, defined as -log10 of concentration (mol/L).

Inquiry: Query pKi for `c1ccc(CNCc2ccc(CN3CCCNCCNCCCNCC3)cc2)nc1`
Reply text: 8.00

Inquiry: Write down pKi measured for item `Cc1ccc(CN2CCCNCCNCCCNCC2)cc1`
Reply text: 4.82

Inquiry: Look up and state reported pKi for `c1ccc(CNCc2ccc(CN3CCCNCCNCCCNCC3)cc2)cc1`
Reply text: 6.77

---

Target: C-X-C chemokine receptor type 4 (Homo sapiens, UniProt P61073, A175F)
Sequence (P61073 whole entry A175F): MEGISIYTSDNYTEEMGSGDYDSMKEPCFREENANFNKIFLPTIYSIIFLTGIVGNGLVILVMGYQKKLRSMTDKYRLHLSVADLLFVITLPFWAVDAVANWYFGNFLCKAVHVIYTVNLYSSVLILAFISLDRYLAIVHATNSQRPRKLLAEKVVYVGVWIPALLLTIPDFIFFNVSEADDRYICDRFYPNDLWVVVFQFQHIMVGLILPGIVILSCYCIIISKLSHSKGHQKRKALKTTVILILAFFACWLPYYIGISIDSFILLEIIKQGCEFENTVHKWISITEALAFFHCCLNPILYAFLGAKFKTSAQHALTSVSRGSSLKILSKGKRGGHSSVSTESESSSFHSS
Assay: Displacement of [125I]12G5 antibody from extracellular loop 2 of human CXCR4 A175F mutant expressed in COS7 cells
Assay type: cell-based, COS-7
reportedMetric: pKi
In plain terms, pKi is the concentration in mol/L turned into minus its base-10 logarithm.

Inquiry: Give recorded pKi. `c1ccc(CNCc2ccc(CN3CCCNCCNCCCNCC3)cc2)nc1`
Reply text: 3.67

---

Give measured Ki for each item. Keep answers brief.
Biological target: C-X-C chemokine receptor type 4 (Homo sapiens, UniProt P61073, L120F)
Sequence (P61073 whole entry L120F): as the sequence (P61073 whole entry G207W, the tested form may be a part) above, with L120F, W207G counted along it
Test: Antagonist activity at human CXCR4 L120F mutant expressed in COS7 cells coexpressing G protein Gqi4myr assessed as inhibition of CXCL12-induced phosphatidylinositol turnover
A complete answer gives the number followed by the unit.

Inquiry: Look up Ki of `c1ccc(CNCc2ccc(CN3CCCNCCNCCCNCC3)cc2)cc1` and report it.
Reply text: 440 nM

Inquiry: Supply reported Ki belonging to this compound: `Cc1ccc(CN2CCCNCCNCCCNCC2)cc1`
Reply text: 13000 nM

Inquiry: Supply measured Ki of `c1ccc(CNCc2ccc(CN3CCCNCCNCCCNCC3)cc2)nc1` in your reply.
Reply text: 10 nM
